Reference for the values: patent US20230331852A1

Assayed target: T1, Fc-CLEC1 labelled with Alexa Fluor 488 (human, Alexa Fluor 488 label (sites not given))
T1 construct: also called Fc-CLEC1-A488; Alexa488-Fc-Clec-1
T1 chain: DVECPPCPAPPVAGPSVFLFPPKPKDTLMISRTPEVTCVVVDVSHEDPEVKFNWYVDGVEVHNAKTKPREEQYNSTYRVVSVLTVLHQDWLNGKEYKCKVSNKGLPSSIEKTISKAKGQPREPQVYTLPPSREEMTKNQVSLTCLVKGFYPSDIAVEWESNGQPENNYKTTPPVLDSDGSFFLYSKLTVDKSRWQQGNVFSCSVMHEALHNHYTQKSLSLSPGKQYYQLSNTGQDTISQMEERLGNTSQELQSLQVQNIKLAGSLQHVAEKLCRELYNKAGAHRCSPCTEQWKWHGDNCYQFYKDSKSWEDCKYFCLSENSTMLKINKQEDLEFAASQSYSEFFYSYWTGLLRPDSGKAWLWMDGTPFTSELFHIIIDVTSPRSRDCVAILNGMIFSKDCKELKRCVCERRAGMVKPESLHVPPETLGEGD
Method: FACS competition: blocks Fc-CLEC1-A488 (20 nM) binding to CLEC-1 ligand on permeabilised Raji cells; read-out % + cells
Attribute measured: IC50 (µg/mL)
One number for each entry, in µg/mL.

Record murine anti-hCLEC1 antibody 14H9-F3 (antibody, V domains shown, Mouse hybridoma antibody) VH: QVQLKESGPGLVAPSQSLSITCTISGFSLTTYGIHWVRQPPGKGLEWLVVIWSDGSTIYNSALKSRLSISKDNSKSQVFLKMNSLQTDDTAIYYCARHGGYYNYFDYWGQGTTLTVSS VL: DIQMNQSPSSLSASLGDTITITCHASQNINVWLSWYQQKPGNIPKLLIYKASNLHTGVPSRFSGSGSGTTFTLTIDSLQPEDIATYYCQQGQSYWTFGGGTKLEIK . Reported IC50: 22
